Target chain: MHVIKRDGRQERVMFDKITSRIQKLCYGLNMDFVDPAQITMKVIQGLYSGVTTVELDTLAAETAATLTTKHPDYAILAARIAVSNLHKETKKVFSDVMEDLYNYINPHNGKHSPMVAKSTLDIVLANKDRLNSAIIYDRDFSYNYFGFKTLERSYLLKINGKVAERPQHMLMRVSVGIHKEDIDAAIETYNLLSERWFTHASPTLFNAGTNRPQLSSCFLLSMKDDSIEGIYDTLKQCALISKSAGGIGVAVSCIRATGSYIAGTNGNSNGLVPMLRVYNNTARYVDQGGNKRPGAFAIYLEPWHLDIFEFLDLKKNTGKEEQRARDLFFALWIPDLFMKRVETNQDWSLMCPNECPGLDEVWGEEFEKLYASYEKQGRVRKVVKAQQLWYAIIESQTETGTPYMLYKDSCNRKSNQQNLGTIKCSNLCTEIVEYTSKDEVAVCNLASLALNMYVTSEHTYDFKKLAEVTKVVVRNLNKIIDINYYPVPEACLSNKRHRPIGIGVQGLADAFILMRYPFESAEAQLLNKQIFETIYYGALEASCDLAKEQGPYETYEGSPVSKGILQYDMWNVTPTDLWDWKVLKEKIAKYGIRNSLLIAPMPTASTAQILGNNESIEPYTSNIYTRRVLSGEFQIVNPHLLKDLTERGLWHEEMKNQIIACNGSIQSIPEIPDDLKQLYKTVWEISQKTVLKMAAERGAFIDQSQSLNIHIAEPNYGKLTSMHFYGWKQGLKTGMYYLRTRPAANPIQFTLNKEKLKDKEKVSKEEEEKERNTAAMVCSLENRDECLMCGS
parameter: IC50 (nM)
Give just the number in nM; leave the unit off.

Exam item: Give the reported value of IC50 for this record: Cc1ccc(F)c([C@@H](C)[C@H](NS(=O)(=O)c2ccc(C(F)(F)F)cc2C(N)=O)c2n[nH]c(=O)o2)c1C
Marked response: 100

Exam item: Find the measured IC50 of Cc1ccc(F)c([C@@H](C)[C@H](NS(=O)(=O)c2cc(F)c(Br)cc2F)c2n[nH]c(=O)o2)c1C and report it.
Marked response: 510

Exam item: Look up and report measured IC50 for this entry: COc1c(S(=O)(=O)N[C@H](c2n[nH]c(=O)o2)[C@H](C)c2c(F)ccc(C)c2C)ncc(Cl)c1C(C)OC(C)=O (stereo partly shown)
Marked response: 430

Exam item: Determine its reported IC50: Cc1ccc(F)c([C@@H](C)[C@H](NS(=O)(=O)c2cc3c(cc2C(=O)O)OCCO3)c2n[nH]c(=O)o2)c1C
Marked response: 790

###

parameter: pIC50
When answering, recall that pIC50 equals minus log10 of the concentration in mol/L, and write that number alone.

Exam item: GET pIC50 where system = human RNR (histidine tagged human M1 and human M2 proteins) (Homo sapiens) and item = COc1c(S(=O)(=O)N[C@H](c2n[nH]c(=O)o2)[C@H](C)c2c(F)ccc(C)c2C)ccc(Cl)c1C(C)(C)OC(C)=O
Marked response: 6.37

Exam item: Lab note: record pIC50 of CCc1ccc(F)c([C@@H](C)[C@H](NS(=O)(=O)c2ccc(Cl)c3c2OCCC3O)c2n[nH]c(=O)o2)c1C (single isomer, unassigned) [Example 239A] tested on human RNR (histidine tagged human M1 and human M2 proteins) (Homo sapiens).
Marked response: 6.70

Exam item: State pIC50 (human RNR (histidine tagged human M1 and human M2 proteins) (Homo sapiens)) of Cc1ccc(F)c([C@@H](C)[C@H](NS(=O)(=O)c2ccc(C(F)(F)F)c3c2OCCC3O)c2n[nH]c(=O)o2)c1C (single isomer, unassigned) [Example 244A] .
Marked response: 7.05

Values were extracted from patent US20200405697A1.
